Sourced from patent US7217710B2

molecular target: GST-TIE2 (intracellular domains of human TIE2) (Homo sapiens); experiment: TIE-2 Enzyme Assay (TIE2-E2), LANCE method; conditions: read-out: TIE2 PIC50 TIE2-E2 assay
Sequence (Q02763 762-1104): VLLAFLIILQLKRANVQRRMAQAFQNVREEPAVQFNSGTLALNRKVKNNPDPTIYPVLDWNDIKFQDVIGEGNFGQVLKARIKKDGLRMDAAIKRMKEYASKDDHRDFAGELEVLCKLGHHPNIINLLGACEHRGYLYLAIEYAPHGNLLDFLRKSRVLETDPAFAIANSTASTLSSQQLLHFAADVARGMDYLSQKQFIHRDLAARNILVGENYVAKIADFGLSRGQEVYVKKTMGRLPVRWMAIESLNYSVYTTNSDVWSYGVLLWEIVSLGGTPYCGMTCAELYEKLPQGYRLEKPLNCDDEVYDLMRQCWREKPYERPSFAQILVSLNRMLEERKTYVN
pIC50: −log10 of the molar value.
Record form. Attribute: pIC50. Fill in for each entry.

Here are 10 compounds together with their reported answers.
CC(=O)NCCNc1ncc2c(-c3ccc(NS(=O)(=O)c4cccc(Cl)c4Cl)cc3)nn(C)c2n1 | < 5.00
Cn1nc(-c2ccc(NC(=O)Nc3ccc4ccccc4c3)cc2)c2cnc(NCCN3CCOCC3)nc21 | 6.00 to 7.00
CC1CCCCN1CCCNc1ncc2c(-c3ccc(NC(=O)Nc4cc(C(F)(F)F)ccc4F)cc3)nn(C)c2n1 (stereo not drawn) | ≥ 7.40
Cn1nc(-c2ccc(NS(=O)(=O)c3cccc(Cl)c3Cl)cc2)c2cnc(NCCCCNC(=N)N)nc21 | 5.00 to 6.00
CC(=O)NCCNc1ncc2c(-c3ccc(NC(=O)Nc4cc(C(F)(F)F)ccc4F)cc3)nn(C)c2n1 | ≥ 7.40
CN(C)CCCNc1ncc2c(-c3ccc(NC(=O)Nc4cc(C(F)(F)F)ccc4F)cc3)nn(C)c2n1 | ≥ 7.40
Cn1nc(-c2ccc(NC(=O)Nc3cc(C(C)(C)C)on3)c(F)c2)c2cnc(NCCN3CCOCC3)nc21 | ≥ 7.40
Cn1nc(-c2ccc(NC(=O)Nc3cc(C(F)(F)F)ccc3F)cc2)c2cnc(NCCCCN)nc21 | ≥ 7.40
CC1CCCCN1CCCNc1ncc2c(-c3ccc(NC(=O)Nc4cc(C(C)(C)C)on4)c(F)c3)nn(C)c2n1 (stereo not drawn) | ≥ 7.40
Cn1nc(-c2ccc(NS(=O)(=O)c3cccc(Cl)c3Cl)cc2)c2cnc(NCCCCNS(C)(=O)=O)nc21 | 5.00 to 6.00

Consider the following items and state reported pIC50 for each.
1. Cn1nc(-c2ccc(NC(=O)Nc3cc(C(F)(F)F)ccc3F)c(F)c2)c2cnc(NCCN3CCOCC3)nc21
2. Cn1nc(-c2ccc(NC(=O)Nc3cc(C(F)(F)F)ccc3F)cc2)c2cnc(NCc3ccncc3)nc21
3. Cn1nc(-c2ccc(NC(=O)Nc3cc(C(F)(F)F)ccc3F)cc2)c2cnc(NCCc3c[nH]cn3)nc21
4. CC(=O)c1cccc(NC(=O)Nc2ccc(-c3nn(C)c4nc(NCCN5CCOCC5)ncc34)cc2C)c1
5. Cn1nc(-c2ccc(NC(=O)Nc3cc(C(F)(F)F)ccc3F)cc2)c2cnc(NCCc3ccccn3)nc21

Response:
≥ 7.40
6.00 to 7.00
7.00 to 7.40
< 5.00
6.00 to 7.00
